meta.source: ChEMBL document CHEMBL4308841

Test system: A498
Assay: Growth inhibition of human A498 cells assessed as cell growth at 1 uM incubated for 48 hrs by sulforhodamine B assay relative to control
Assay type: functional
Details: A498, 48 h, read-out: Activity
The following molecules are shown together with reported growth at 1 µM values.
Observable: growth at 1 µM (%)

1. O=C(Nc1cccc(-n2cc(-c3ccncc3)c(-c3cc(O)cc(Cl)c3)n2)c1)c1cc(C(F)(F)F)cc(C(F)(F)F)c1	78
2. COc1cc(Cl)cc(-c2nn(-c3cccc(NC(=O)c4cccc(C(F)(F)F)c4)c3)cc2-c2ccncc2)c1	51
3. O=C(Nc1cccc(-n2cc(-c3ccncc3)c(-c3cc(O)cc(Cl)c3)n2)c1)Nc1ccc(Cl)c(Cl)c1	75
4. O=C(Nc1cccc(-n2cc(-c3ccncc3)c(-c3cc(O)cc(Cl)c3)n2)c1)c1ccc(N2CCOCC2)c(C(F)(F)F)c1	98
